Measured On: Androgen receptor (AR) (Homo sapiens, UniProt P10275, T878A)
Construct: 5.5×10^5 LNCap cells were injected into each well of a 6-well plate; endogenous in cells; host or cells: LNCaP
Sequence (P10275 1-920 T878A): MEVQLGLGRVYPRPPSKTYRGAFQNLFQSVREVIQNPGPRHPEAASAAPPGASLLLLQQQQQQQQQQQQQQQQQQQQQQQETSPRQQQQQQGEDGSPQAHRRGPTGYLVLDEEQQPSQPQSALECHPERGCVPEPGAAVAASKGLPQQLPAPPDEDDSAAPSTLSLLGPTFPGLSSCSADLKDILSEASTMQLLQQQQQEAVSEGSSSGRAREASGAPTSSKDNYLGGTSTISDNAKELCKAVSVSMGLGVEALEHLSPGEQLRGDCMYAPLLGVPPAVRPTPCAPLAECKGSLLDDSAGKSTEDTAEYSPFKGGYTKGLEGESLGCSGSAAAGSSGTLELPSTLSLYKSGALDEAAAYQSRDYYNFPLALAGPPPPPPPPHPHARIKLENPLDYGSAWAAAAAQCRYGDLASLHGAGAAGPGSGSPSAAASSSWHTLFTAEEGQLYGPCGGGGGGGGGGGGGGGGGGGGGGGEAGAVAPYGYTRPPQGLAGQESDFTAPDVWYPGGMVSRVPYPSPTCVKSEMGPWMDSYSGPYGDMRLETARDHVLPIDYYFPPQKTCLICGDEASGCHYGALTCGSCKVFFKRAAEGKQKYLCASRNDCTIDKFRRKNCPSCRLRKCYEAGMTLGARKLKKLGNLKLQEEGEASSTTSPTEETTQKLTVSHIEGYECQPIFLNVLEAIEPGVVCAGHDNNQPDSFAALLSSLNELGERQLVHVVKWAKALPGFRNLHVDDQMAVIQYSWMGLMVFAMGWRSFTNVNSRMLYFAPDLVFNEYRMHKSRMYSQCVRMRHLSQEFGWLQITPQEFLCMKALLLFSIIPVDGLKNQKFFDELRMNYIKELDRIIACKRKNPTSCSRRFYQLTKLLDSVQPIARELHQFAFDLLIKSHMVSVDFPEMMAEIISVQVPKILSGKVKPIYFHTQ
Run Description: Assessment of AR proteolytic activity (Western blotting of LNCap cell lysates)
Type: cell-based
Test Settings: 24 hours of treatment, Western blotting quantified with Image J
Catalogue of compounds with associated Degradation (1 μM treated in LNCaP, % AR remaining)
Property Label: Degradation (1 μM treated in LNCaP, % AR remaining) (%)

{"columns": ["Compound", "Value Reported"],
 "data": [
  ["CC1(C)[C@H](NC(=O)c2ccc(N3CCC(CCN4CCN(c5ccc6nnn(C7CCC(=O)NC7=O)c(=O)c6c5)CC4)CC3)nc2)C(C)(C)[C@H]1Oc1ccc(C#N)c(Cl)c1 (stereo partly drawn)", 10],
  ["CC1(C)C(NC(=O)c2ccc(C#CC3CCN(CC4CCN(c5ccc6nnn(C7CCC(=O)NC7=O)c(=O)c6c5)CC4)CC3)nc2)C(C)(C)C1Oc1ccc(C#N)c(Cl)c1 (stereo not drawn)", 4],
  ["CC1(C)C(NC(=O)c2ccc(N3CCN(CC4CCN(C(=O)C5CN(c6ccc7nnn(C8CCC(=O)NC8=O)c(=O)c7c6)C5)CC4)CC3)nc2)C(C)(C)C1Oc1ccc(C#N)c(Cl)c1 (stereo not drawn)", 56]
]}

* * *

Measured On: Androgen receptor (AR) (Homo sapiens, UniProt P10275, T878A)
Construct: 5.5×10^5 LNCap cells were injected into each well of a 6-well plate; endogenous in cells; host or cells: LNCaP
Run Description: Assessment of AR proteolytic activity (Western blotting of LNCap cell lysates)
Assay type: cell-based
Test Settings: 24 hours of treatment, Western blotting quantified with Image J
Rule: measured Degradation (1 μM treated in LNCaP, % AR remaining) below 9% gets rule met; anything equal to or greater than 9% gets rule not met.

{"columns": ["Molecule", "Measured On", "Class"],
 "data": [
  ["CC1(C)C(NC(=O)c2ccc(N3CCN(CCCOC4CCN(C(=O)C5CCN(c6ccc7nnn(C8CCC(=O)NC8=O)c(=O)c7c6)CC5)CC4)CC3)cc2)C(C)(C)C1Oc1ccc(C#N)c(Cl)c1 (centres unmarked) [Example 35]", "Androgen receptor (AR) (Homo sapiens, UniProt P10275, T878A)", "rule met"],
  ["CC1(C)[C@H](NC(=O)c2ccc(OCCOCCOCCOCCOCCOCCNc3cccc4nnn(C5CCC(=O)NC5=O)c(=O)c34)cc2)C(C)(C)[C@H]1Oc1ccc(C#N)c(Cl)c1 (some centres unmarked) [Example 1]", "Androgen receptor (AR) (Homo sapiens, UniProt P10275, T878A)", "rule not met"],
  ["CC1(C)C(NC(=O)c2ccc(C#CCC3CCN(CC4CCN(c5ccc6nnn(C7CCC(=O)NC7=O)c(=O)c6c5)CC4)CC3)cc2)C(C)(C)C1Oc1ccc(C#N)c(Cl)c1 (centres unmarked) [Example 88]", "Androgen receptor (AR) (Homo sapiens, UniProt P10275, T878A)", "rule not met"],
  ["CC1(C)C(NC(=O)c2ccc(-n3cc(CC4CCN(C(=O)C5CN(c6ccc7nnn(C8CCC(=O)NC8=O)c(=O)c7c6)C5)CC4)nn3)cc2)C(C)(C)C1Oc1ccc(C#N)c(Cl)c1 (centres unmarked) [Example 90]", "Androgen receptor (AR) (Homo sapiens, UniProt P10275, T878A)", "rule met"]
]}
